- target.entity: Dimer of Gag-Pol polyprotein [489-587] (Human immunodeficiency virus 1, UniProt P04585)
- Construct: 489-587
- test.method.notes: Protease Inhibition Assay
- experimental.parameters: pH 5.5; 30 °C
Could you please report measured IC50 for the items listed next?
One number for each entry, in nM.

CCC(C)[C@H](NC(=O)[C@H](Cc1ccccc1)C[C@H](O)[C@H](Cc1ccccc1)NC(=O)OC(C)(C)C)C(=O)N[C@@H](Cc1ccccc1)C(N)=O (some centres not stated)	0.25

Consider now this further compound.
Request: IC50 for CC(C)C[C@H](NC(=O)[C@H](Cc1ccccc1)C[C@H](O)[C@H](Cc1ccccc1)NC(=O)OC(C)(C)C)C(=O)N[C@@H](Cc1ccccc1)C(N)=O [Hydroxyethylene dipeptide isostere] ?
Response: 0.6
